Biological target: human ether-à-go-go-related gene (hERG) potassium channel (human, UniProt Q12809);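 further: peak tail current of the secondary pulse compared with the same well before compound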
Sequence (Q12809 whole entry, looked up): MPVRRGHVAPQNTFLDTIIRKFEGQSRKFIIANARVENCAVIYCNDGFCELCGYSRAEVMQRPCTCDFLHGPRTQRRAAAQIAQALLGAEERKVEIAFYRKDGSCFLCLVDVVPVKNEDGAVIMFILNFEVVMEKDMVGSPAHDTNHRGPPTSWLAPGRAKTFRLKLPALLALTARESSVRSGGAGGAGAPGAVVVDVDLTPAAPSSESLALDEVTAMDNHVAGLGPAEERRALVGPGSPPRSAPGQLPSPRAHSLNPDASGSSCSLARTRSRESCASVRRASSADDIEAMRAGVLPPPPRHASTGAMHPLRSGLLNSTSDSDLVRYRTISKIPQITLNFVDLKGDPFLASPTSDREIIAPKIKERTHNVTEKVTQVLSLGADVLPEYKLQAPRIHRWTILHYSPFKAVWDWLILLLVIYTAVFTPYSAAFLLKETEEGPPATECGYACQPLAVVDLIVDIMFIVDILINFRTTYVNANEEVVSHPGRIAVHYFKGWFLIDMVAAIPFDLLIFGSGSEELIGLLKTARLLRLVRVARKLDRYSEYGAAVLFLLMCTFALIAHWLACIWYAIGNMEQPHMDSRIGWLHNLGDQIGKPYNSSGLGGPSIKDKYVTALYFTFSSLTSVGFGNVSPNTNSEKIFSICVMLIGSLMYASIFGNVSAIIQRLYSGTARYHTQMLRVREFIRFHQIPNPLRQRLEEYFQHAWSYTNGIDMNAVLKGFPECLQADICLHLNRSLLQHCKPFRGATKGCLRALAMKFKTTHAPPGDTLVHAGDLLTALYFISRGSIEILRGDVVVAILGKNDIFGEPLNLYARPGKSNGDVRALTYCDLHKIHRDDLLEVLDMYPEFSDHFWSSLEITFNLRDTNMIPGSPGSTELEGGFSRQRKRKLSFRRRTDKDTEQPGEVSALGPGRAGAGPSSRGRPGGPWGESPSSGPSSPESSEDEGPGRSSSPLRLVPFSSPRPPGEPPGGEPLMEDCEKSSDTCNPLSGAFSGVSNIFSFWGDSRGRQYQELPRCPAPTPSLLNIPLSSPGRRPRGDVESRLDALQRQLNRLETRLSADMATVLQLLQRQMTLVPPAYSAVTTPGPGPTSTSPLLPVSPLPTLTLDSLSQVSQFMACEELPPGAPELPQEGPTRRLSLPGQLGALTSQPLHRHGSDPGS
Experiment: primary screen, population patch clamp on CHO cells stably expressing hERG; higher = less effect of the substance
Screen size: about 310,000 compounds; about 14,000 (4.5%) showed an effect of 50% or more. Effects have a minus sign here. The list comes from a sample in which strong results are over-represented; it also holds close analogues and randomly drawn compounds.
quantityName: hERG current change (%, negative = inhibition) at 10uM (%)
Numbers only, in %.

Known hERG current change (%, negative = inhibition) at 10uM results, listed for orientation:
* COC(=O)c1ccc(SCc2cnc(Cl)s2)cc1 | 1.27
* CNC(=O)C(=O)NCCN1CCN(C(=O)c2ccc([N+](=O)[O-])cc2)CC1 | -39.6
* CCOc1ccccc1NC(=O)c1cccc2c1C(=O)N(C1CCCCC1)C2 | 9.57
* CCOc1ccc(NC(=O)C(=O)NCCN2CCN(C(=O)c3ccc(C)cc3)CC2)cc1 | -75.2
* CCCCn1c(SCC(=O)OCC)nc2c1c(=O)[nH]c(=O)n2C | -41.9
* O=c1oc(-c2ccc(Br)cc2)nc2ccccc12 | 17.8

Report hERG current change (%, negative = inhibition) at 10uM for every entry below.
1. O=C(c1ccc(NS(=O)(=O)c2cccc3cccnc23)cc1)N1CCCCC1
2. O=C(O)c1ccc(SCc2cnc(Cl)s2)cc1
3. CCCCCCn1c(SCC(=O)OC)nc2c1c(=O)[nH]c(=O)n2C

[reply]
[12, -70, -70.1]

###

Task for the reader: assign each of the following compounds its reported hERG current change (%, negative = inhibition) at 10uM.
Target: human ether-à-go-go-related gene (hERG) potassium channel (human);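 further: peak tail current of the secondary pulse compared with the same well before compound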
Assay: primary screen, population patch clamp on CHO cells stably expressing hERG; higher = less effect of the substance
The campaign covered roughly 310,000 compounds. About 14,000 (4.5%) showed an effect of 50% or more. The effect is printed as a negative number. Shown is part of a subset that was picked to be rich in strong results.
Answers are plain numbers, in %.

Known hERG current change (%, negative = inhibition) at 10uM results, listed for orientation:
• Cc1ccc(N(Cc2cc3ccccc3[nH]c2=O)C(=O)c2cccs2)cc1C = 9.8
• CC(=O)Nc1ccc(OCCC[n+]2cccc(C(=O)[O-])c2)cc1 = 12.5
• C#CCOc1c(Cl)cc(/C=N/O)cc1OC = 4.04
• CN(CC(=O)Nc1ccccc1Br)C(=O)CNC(=O)c1ccc(Oc2ccccc2)cc1 = -17.8
• CCc1ccccc1NC(=O)CN1CCN(CC(=O)Nc2cc(C)ccc2OC)CC1 = -28.4
• CCn1cc(C(=O)NCCC(C)C)c(=O)c2cc(F)c(N3CCN(C(=O)c4ccco4)CC3)cc21 = -11.3

[ask] Quick check: hERG current change (%, negative = inhibition) at 10uM of Cc1nn(-c2ccccc2)nc1C(=O)Nc1ccc2[nH]ncc2c1 ?
[reply] 6.02

###

Target: human ether-à-go-go-related gene (hERG) potassium channel (human, UniProt Q12809);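 further: peak tail current of the secondary pulse compared with the same well before compound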
Assay: primary screen, population patch clamp on CHO cells stably expressing hERG; higher = less effect of the substance
Among all 310,000 compounds or so, about 14,000 (4.5%) showed an effect of 50% or more. Effects have a minus sign here. Only a selection was taken, and strong results are over-represented in it overall.
Note to self: values exactly at -50% are label 1. So hERG current change (%, negative = inhibition) at 10uM at or above -50% is label 1, below is label 0.

- COc1ccc(CN(C)CC(=O)Nc2ccc(N3CCOCC3)cc2)cc1OC: label 1

[ask] Determine whether this molecule has hERG current change (%, negative = inhibition) at 10uM no lower than -50%: CCCNC(=O)CS(=O)(=O)Cc1nc(-c2cccc(OC)c2)oc1C
[reply] label 0

[ask] Repeat for the following molecule: CCc1ccc(CN(C(=O)COc2c(C)cccc2C)C2CCS(=O)(=O)C2)cc1 (stereo not drawn)
[reply] label 1

[ask] Repeat for the following molecule: COCCCNC(=O)CS(=O)(=O)Cc1nc(-c2cccc(OC)c2)oc1C
[reply] label 1

[ask] Repeat for the following molecule: CN(C)c1ccc(C2SCCN2C(=O)c2ccc([N+](=O)[O-])cc2)cc1 (stereo not drawn)
[reply] label 0

[ask] Repeat for the following molecule: COc1ccc(CCNC(=S)N(C)C)cc1OC
[reply] label 1
